Hello, the source for this data is the emibetuzumab library of Makowski et al. (2022), in case you need it.

B1: VH:VL chains; a variant is named by its letters at X, in order (parent)
chain 1: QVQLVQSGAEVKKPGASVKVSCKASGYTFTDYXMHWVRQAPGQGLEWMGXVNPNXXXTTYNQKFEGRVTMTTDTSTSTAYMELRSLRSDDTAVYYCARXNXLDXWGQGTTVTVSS
chain 2: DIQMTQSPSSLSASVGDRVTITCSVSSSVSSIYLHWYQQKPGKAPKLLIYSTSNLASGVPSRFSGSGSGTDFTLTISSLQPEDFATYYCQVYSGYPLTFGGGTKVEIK

Variants of: B1
assay.overview: yeast display scFab, FACS + sequencing
measurement.conditions: with MET
The other results are listed elsewhere or left out. No count for the full screen is at hand.
result.type: antigen binding call

VEAGDDVY ... no binding
VAGGDDVA ... no binding
YEKGGDGA ... no binding
FKGKGAWY ... binds
YRRRGSGY ... binds
VETGNDAV ... no binding
DREEGDWV ... no binding
VEGADAVA chain 1 G106S ... no binding
YRRGGAWD ... binds
DRAGDAGY ... no binding
YRRGGDGA ... binds
YRTRSAGV ... binds
VETKGDWD ... no binding
SKAGSDVA ... no binding
